This section presents compounds with their documented GI50 values.
TEST: Cytotoxicity against human […]
Assay type: functional
MEASURED_ENDPOINT: GI50 (µM)

>>> df
                                   compound  measured_endpoint  operator_symbol  measured
0  CC(C)=CCc1[nH]c2ccccc2c1C[C@@H]1NC(=O)[C@@H]2CCCN2C1=O [TRYPROSTATIN B]               GI50                >       100
1  CC(C)=CCc1[nH]c2ccccc2c1C[C@H]1NC(=O)[C@@H]2CCCN2C1=O               GI50                =      49.6
2  CC(C)=CCc1[nH]c2ccccc2c1C[C@@H]1NC(=O)[C@H]2CCCN2C1=O               GI50                =      14.9
3  COc1ccc2c(C[C@H]3NC(=O)[C@@H]4CCCN4C3=O)c(CC=C(C)C)[nH]c2c1               GI50                =        13

====

System: PC-3
TEST: Cytotoxicity against human PC3 cells at 10 uM after 72 hrs by Cell Titer 96 Aqueous Non-Radioactive assay
Type: functional
MEASUREMENT_SETUP: PC-3, 72 h, read-out: Inhibition
MEASURED_ENDPOINT: percent cell survival relative to vehicle control at 10 µM (%)

                                   molecule  system_name  operator_symbol  measured
0  CC(C)=CCc1[nH]c2ccccc2c1C[C@@H]1NC(=O)[C@H]2CCCN2C1=O         PC-3                =      59.3
1  CC(C)=CCc1[nH]c2ccccc2c1C[C@@H]1NC(=O)[C@@H]2CCCN2C1=O [TRYPROSTATIN B]         PC-3                =      95.5
2  CC(C)=CCc1[nH]c2ccccc2c1C[C@H]1NC(=O)[C@@H]2CCCN2C1=O         PC-3                =      97.3
3  COc1ccc2c(C[C@@H]3NC(=O)[C@H]4CCCN4C3=O)c(CC=C(C)C)[nH]c2c1         PC-3                >       100

====

In this section we review reported percent cell survival relative to vehicle control at 10 µM values for a set of molecules.
System: PC-3
TEST: Cytotoxicity against human PC3 cells at 10 uM after 72 hrs by Cell Titer 96 Aqueous Non-Radioactive assay
Assay type: functional
MEASUREMENT_SETUP: PC-3, 72 h, read-out: Inhibition
MEASURED_ENDPOINT: percent cell survival relative to vehicle control at 10 µM

In [3]: df
Out[3]:
                               input_smiles  system_name  measured
0  COc1ccc2c(C[C@H]3NC(=O)[C@@H]4CCCN4C3=O)c(CC=C(C)C)[nH]c2c1         PC-3    > 100%
1  COc1ccc2c(C[C@@H]3NC(=O)[C@@H]4CCCN4C3=O)c(CC=C(C)C)[nH]c2c1         PC-3     99.2%
2  COc1ccc2c(C[C@H]3NC(=O)[C@H]4CCCN4C3=O)c(CC=C(C)C)[nH]c2c1         PC-3    > 100%
3  CC(C)=CCc1[nH]c2ccccc2c1C[C@H]1NC(=O)[C@H]2CCCN2C1=O         PC-3     95.8%

====

GI50 for assorted compounds
System: DU-145
TEST: Cytotoxicity against human DU145 cells
Format: functional
MEASURED_ENDPOINT: GI50

                               input_smiles  measured
0  COc1ccc2c(C[C@@H]3NC(=O)[C@H]4CCCN4C3=O)c(CC=C(C)C)[nH]c2c1  > 100 µM
1  COc1ccc2c(C[C@H]3NC(=O)[C@@H]4CCCN4C3=O)c(CC=C(C)C)[nH]c2c1     40 µM
2  CC(C)=CCc1[nH]c2ccccc2c1C[C@H]1NC(=O)[C@@H]2CCCN2C1=O   59.5 µM
3  COc1ccc2c(C[C@@H]3NC(=O)[C@@H]4CCCN4C3=O)c(CC=C(C)C)[nH]c2c1  > 100 µM
4  CC(C)=CCc1[nH]c2ccccc2c1C[C@@H]1NC(=O)[C@@H]2CCCN2C1=O  > 100 µM
5  CC(C)=CCc1[nH]c2ccccc2c1C[C@@H]1NC(=O)[C@H]2CCCN2C1=O     14 µM
6  CC(C)=CCc1[nH]c2ccccc2c1C[C@H]1NC(=O)[C@H]2CCCN2C1=O   > 50 µM
7  COc1ccc2c(C[C@H]3NC(=O)[C@H]4CCCN4C3=O)c(CC=C(C)C)[nH]c2c1   > 25 µM

====

Test system: MCF7
TEST: Cytotoxicity against human MCF7 cells after 72 hrs by Cell Titer 96 Aqueous Non-Radioactive assay
Assay type: functional
MEASUREMENT_SETUP: MCF7, 72 h
MEASURED_ENDPOINT: GI50 (µM)

>>> df
                                   compound  operator_symbol  measured
0  CC(C)=CCc1[nH]c2ccccc2c1C[C@@H]1NC(=O)[C@@H]2CCCN2C1=O [TRYPROSTATIN B]                >       100
1  COc1ccc2c(C[C@H]3NC(=O)[C@H]4CCCN4C3=O)c(CC=C(C)C)[nH]c2c1                >        25
2  COc1ccc2c(C[C@H]3NC(=O)[C@@H]4CCCN4C3=O)c(CC=C(C)C)[nH]c2c1                =      25.5
3  CC(C)=CCc1[nH]c2ccccc2c1C[C@H]1NC(=O)[C@H]2CCCN2C1=O                =        40
4  COc1ccc2c(C[C@@H]3NC(=O)[C@H]4CCCN4C3=O)c(CC=C(C)C)[nH]c2c1                >       100

====

Test system: OVCAR-3
TEST: Cytotoxicity against human OVCAR-3 cells
Assay type: functional
MEASURED_ENDPOINT: GI50 (µM)

>>> df
                               input_smiles  operator_symbol  measured
0  CC(C)=CCc1[nH]c2ccccc2c1C[C@H]1NC(=O)[C@H]2CCCN2C1=O                =      38.2
1  COc1ccc2c(C[C@@H]3NC(=O)[C@H]4CCCN4C3=O)c(CC=C(C)C)[nH]c2c1                =      85.5
2  COc1ccc2c(C[C@H]3NC(=O)[C@@H]4CCCN4C3=O)c(CC=C(C)C)[nH]c2c1                >        50
3  CC(C)=CCc1[nH]c2ccccc2c1C[C@@H]1NC(=O)[C@@H]2CCCN2C1=O                >       100
4  CC(C)=CCc1[nH]c2ccccc2c1C[C@H]1NC(=O)[C@@H]2CCCN2C1=O                =      28.7
5  COc1ccc2c(C[C@H]3NC(=O)[C@H]4CCCN4C3=O)c(CC=C(C)C)[nH]c2c1                >        25
6  CC(C)=CCc1[nH]c2ccccc2c1C[C@@H]1NC(=O)[C@H]2CCCN2C1=O                =      9.69
7  COc1ccc2c(C[C@@H]3NC(=O)[C@@H]4CCCN4C3=O)c(CC=C(C)C)[nH]c2c1                >       100

====

Recorded GI50 for the following molecules
Test system: MOLT-4
TEST: Cytotoxicity against human MOLT4 cells
Assay type: functional
MEASURED_ENDPOINT: GI50 (µM)

>>> print(df.to_string())
                                   molecule  operator_symbol  measured
0  COc1ccc2c(C[C@@H]3NC(=O)[C@H]4CCCN4C3=O)c(CC=C(C)C)[nH]c2c1                >       100
1  CC(C)=CCc1[nH]c2ccccc2c1C[C@H]1NC(=O)[C@@H]2CCCN2C1=O                =      34.9
2  COc1ccc2c(C[C@H]3NC(=O)[C@H]4CCCN4C3=O)c(CC=C(C)C)[nH]c2c1                >        25
3  CC(C)=CCc1[nH]c2ccccc2c1C[C@H]1NC(=O)[C@H]2CCCN2C1=O                =        21
4  CC(C)=CCc1[nH]c2ccccc2c1C[C@@H]1NC(=O)[C@@H]2CCCN2C1=O [TRYPROSTATIN B]                >       100
5  CC(C)=CCc1[nH]c2ccccc2c1C[C@@H]1NC(=O)[C@H]2CCCN2C1=O                =      5.96
6  COc1ccc2c(C[C@H]3NC(=O)[C@@H]4CCCN4C3=O)c(CC=C(C)C)[nH]c2c1                =      12.2
